These measurements were taken from patent US20050049294A1.

molecular target: UniProt G1SWK8; experiment: biochemical
Sequence (G1SWK8 1-271): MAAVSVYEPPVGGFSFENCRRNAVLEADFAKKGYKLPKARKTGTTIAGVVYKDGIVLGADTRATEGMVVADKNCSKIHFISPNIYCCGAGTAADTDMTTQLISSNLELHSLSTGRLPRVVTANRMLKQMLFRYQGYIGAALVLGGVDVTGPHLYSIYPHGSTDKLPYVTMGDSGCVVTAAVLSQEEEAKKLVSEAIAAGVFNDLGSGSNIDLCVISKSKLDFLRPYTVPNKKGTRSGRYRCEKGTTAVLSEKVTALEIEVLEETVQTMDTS
observable: pEC50
// pEC50: -log10(molar conc.)

- structure-smiles: "CCC(=O)OCC[C@H]1C(=O)N[C@@]2([C@@H](O)[C@@H]3C=CCCC3)C(=O)O[C@@]12C"
  tested-on: "UniProt G1SWK8"
  observable: "pEC50"
  value-reported: 6.51

Inquiry: What value of measured pEC50 is listed for "C[C@@]12OC(=O)[C@]1([C@@H](O)[C@H]1CCC[C@@H]3O[C@H]13)NC(=O)[C@@H]2CCCl" ?
Reply text: 6.13

Inquiry: Any idea what its pEC50 is? The molecule is "C[C@@]12OC(=O)[C@]1([C@@H](O)[C@@H]1C=CCCC1)NC(=O)[C@@H]2CCBr"
Reply text: 7.85

Inquiry: Please report the recorded pEC50 for "CC[C@H]1C(=O)N[C@@]2([C@@H](O)C3CCCCC3)C(=O)O[C@@]12C" .
Reply text: 5.18

Inquiry: Endpoint output: pEC50 of "C[C@H]1C(=O)N[C@@]2([C@@H](O)[C@@H]3C=CCCC3)C(=O)O[C@@]12C" . Value?
Reply text: 6.50
